Overview of reported pKi across a group of compounds:
- target_or_test_system: D(2) dopamine receptor (Rattus norvegicus)
- protocol_notes: Compound was evaluated for its ability to displace [3H]raclopride from dopamine receptor D2 in rat striatal homogenates
Here pKi is given on a logarithmic scale as minus log10 of the concentration in mol/L.

> print(dat)
                                   compound  experimental.value
1  Br.CCCN(CCC)[C@@H]1Cc2cccc3nc(O)n(c23)C1                7.17

Please examine the following record next.
q: Give the reported value of pKi for this record: CCCN(CCC)C1Cc2cccc3c2n(c(=O)n3C)C1 (centres undefined)
a: 6.03

----------
Each entry below carries its reported pKi.
- target_or_test_system: UniProtKB P61169
- protocol_notes: Ability to displace [3H]raclopride from dopamine receptor D2 in rat striatal homogenates.
# pKi is unitless: minus log10 of the molar concentration; print number only

Sample answers from the record:
> print(dat)
                                   compound  parameter  experimental.value
1  CCCN(CCC)C1Cc2cccc3ccn(c23)C1.O=C(O)/C=C/C(=O)O (stereo unspecified)        pKi                6.68
2  CCCN(CCC)C1Cc2cccc3c2N(CCC3)C1 (stereo unspecified)        pKi                7.46
3  CCCNC1Cc2cccc3nc(O)n(c23)C1.Cl (stereo unspecified)        pKi                5.98
4  CCCN(CCC)C1Cc2cccc3c2N(C1)C(=O)CN3 (stereo unspecified)        pKi                7.10

Here is another compound to look at.
q: Indicate the recorded pKi value for this compound: CCCN(CCC)C1Cc2cccc3c2N(C1)C(=O)OC3.Cl (stereo unspecified)
a: 6.53

----------
- Tested on: Rattus norvegicus
- protocol_notes: Percent change in 5-HTP levels in rat brain following 1 mg/kg administration.
Reported Change values follow for various compounds
Field format: number, assumed %, no unit text.

Guide cases for Change, answers given:
> print(dat)
                                   compound  target.or.test.system  parameter  endpoint.unit  experimental.value
1  CCCN(CCC)C1Cc2cccc3c2N(C1)C(=O)CN3 (stereo not drawn)      Rattus norvegicus     Change              %                 -32
2  CCCN(CCC)C1Cc2cccc3ccc(=O)n(c23)C1 (stereo not drawn)      Rattus norvegicus     Change              %                 -18
3  CCCN(CCC)C1Cc2cccc3nc(O)n(c23)C1.Cl (stereo not drawn)      Rattus norvegicus     Change              %                  12
4  CCCN(CCC)C1Cc2cccc3nc(S)n(c23)C1 (stereo not drawn)      Rattus norvegicus     Change              %                  -7
5  CCCN(CCC)C1Cc2cccc3oc(=O)n(c23)C1 (stereo not drawn)      Rattus norvegicus     Change              %                  -6
6  Br.CCCN(CCC)[C@@H]1Cc2cccc3nc(O)n(c23)C1      Rattus norvegicus     Change              %                -1.2
7  CCCN(CCC)C1Cc2cccc3ccn(c23)C1.O=C(O)/C=C/C(=O)O (stereo not drawn)      Rattus norvegicus     Change              %                 -14
8     CN1CCc2cccc3c2[C@H]1Cc1ccc(O)c(O)c1-3      Rattus norvegicus     Change              %                   4

q: Provide Change value for the following compound: CCCN(CCC)C1Cc2cccc3c2N(C1)C(=O)CO3.O=C(O)/C=C/C(=O)O (stereo not drawn)
a: -12

q: Specify Change for CCCN(CCC)C1Cc2cccc3c2N(C1)C(=O)CC3 (stereo not drawn) and stop.
a: -48

q: Return Change (reported value) for this compound: `CCCN(CCC)[C@H]1Cc2cccc3nc(O)n(c23)C1.Cl`
a: 6.4

q: Return reported Change. Input compound: CCCN(CCC)C1Cc2cccc3c2N(C1)C(=O)C3 (stereo not drawn)
a: -11

q: Report Change for CCCN(CCC)C1Cc2cccc3[nH]c(=O)c(=O)n(c23)C1.Cl (stereo not drawn)
a: 6

----------
- target_or_test_system: D(2) dopamine receptor (Rattus norvegicus)
- protocol_notes: Ability to displace [3H]raclopride from dopamine receptor D2 in rat striatal homogenates.
Collected Ki values appear next to each entry.

> print(dat)
                                   molecule                     target.or.test.system  experimental.value
1  C=CCN(CC=C)C1Cc2cccc3nc(O)n(c23)C1 (stereo not given)  D(2) dopamine receptor (Rattus norvegicus)             > 10 µM
2  NC1Cc2cccc3nc(O)n(c23)C1 (stereo not given)  D(2) dopamine receptor (Rattus norvegicus)             > 10 µM
3  CCCN(CCC)C1Cc2cccc3nc(SC)n(c23)C1 (stereo not given)  D(2) dopamine receptor (Rattus norvegicus)              > 1 µM

q: Please look at this molecule and report its Ki: CN(C)C1Cc2cccc3nc(O)n(c23)C1 (stereo not given)
a: > 10 µM

q: Please supply the value of reported Ki for the item CCCCN(CCCC)C1Cc2cccc3nc(O)n(c23)C1 (stereo not given)
a: > 10 µM

----------
- target_or_test_system: D(2) dopamine receptor (Rattus norvegicus, UniProt P61169)
- Sequence (P61169 whole entry): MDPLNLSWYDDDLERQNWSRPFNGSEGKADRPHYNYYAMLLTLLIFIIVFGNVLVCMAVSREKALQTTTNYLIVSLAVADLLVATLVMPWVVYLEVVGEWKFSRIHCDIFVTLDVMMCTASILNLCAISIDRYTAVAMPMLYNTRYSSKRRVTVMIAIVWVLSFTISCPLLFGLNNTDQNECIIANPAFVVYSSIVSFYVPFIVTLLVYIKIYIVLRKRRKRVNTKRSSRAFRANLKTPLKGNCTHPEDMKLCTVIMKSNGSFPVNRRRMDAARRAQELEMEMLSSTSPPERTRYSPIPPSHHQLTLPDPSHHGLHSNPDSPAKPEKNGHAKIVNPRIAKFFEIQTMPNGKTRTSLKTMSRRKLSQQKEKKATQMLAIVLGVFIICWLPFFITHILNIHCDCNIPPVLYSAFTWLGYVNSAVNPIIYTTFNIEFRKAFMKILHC
- protocol_notes: Ability to displace [3H]raclopride from dopamine receptor D2 in rat striatal homogenates.
pKi: −log10 of the molar value.
parameter: pKi

Solved entries:
> print(dat)
                                   molecule  experimental.value
1  CCCN(CCC)C1Cc2cccc3c2N(C1)C(=O)NC3 (stereo not drawn)              < 6.00
2  CCCN(CCC)C1Cc2cccc3c2N(CC3)C1.O=C(O)/C=C/C(=O)O (stereo not drawn)              < 6.00

# input for lookup
q: Kindly indicate its recorded pKi. Item: CCCN(CCC)C1Cc2cccc3ncn(c23)C1 (stereo not drawn)
a: < 6.00

Attribution: ChEMBL document CHEMBL1126266
